- Experimental Target: T1, Inactive-C1s (Homo sapiens, UniProt P09871)
- T1 construct: proenzyme (pro-C1s); also called pro-C1s
- T1 sequence (single chain, looked up): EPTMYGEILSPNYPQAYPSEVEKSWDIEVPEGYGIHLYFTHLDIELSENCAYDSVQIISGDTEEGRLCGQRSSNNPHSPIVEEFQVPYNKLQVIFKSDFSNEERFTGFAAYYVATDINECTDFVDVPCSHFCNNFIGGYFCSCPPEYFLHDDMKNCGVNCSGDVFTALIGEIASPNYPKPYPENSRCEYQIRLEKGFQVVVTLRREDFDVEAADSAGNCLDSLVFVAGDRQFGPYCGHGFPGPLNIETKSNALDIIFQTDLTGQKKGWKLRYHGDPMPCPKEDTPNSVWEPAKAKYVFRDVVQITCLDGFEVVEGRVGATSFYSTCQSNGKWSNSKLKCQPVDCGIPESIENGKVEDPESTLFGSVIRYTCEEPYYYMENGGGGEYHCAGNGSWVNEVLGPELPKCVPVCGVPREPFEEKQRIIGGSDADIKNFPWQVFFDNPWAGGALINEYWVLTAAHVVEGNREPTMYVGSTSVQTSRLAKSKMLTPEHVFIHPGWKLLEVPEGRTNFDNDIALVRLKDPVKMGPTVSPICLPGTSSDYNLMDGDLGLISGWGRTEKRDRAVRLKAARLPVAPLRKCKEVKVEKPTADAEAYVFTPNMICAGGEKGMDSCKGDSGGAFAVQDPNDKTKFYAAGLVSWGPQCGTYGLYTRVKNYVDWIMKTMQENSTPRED
- Protocol Details: kinetic binding measurement, method not stated; Table 10, pro-C1s
Measurement Name: kon (M⁻¹ s⁻¹)
Respond with the bare value in M⁻¹ s⁻¹.

Binder: VH1/Vk3 (antibody, V domains shown, member of group m7; also called VH1/Vκ3; VH variant 1 + Vk variant 3) VH: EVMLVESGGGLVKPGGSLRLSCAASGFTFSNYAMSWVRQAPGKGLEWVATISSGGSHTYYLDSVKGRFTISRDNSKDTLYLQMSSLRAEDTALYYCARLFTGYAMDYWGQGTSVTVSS VL: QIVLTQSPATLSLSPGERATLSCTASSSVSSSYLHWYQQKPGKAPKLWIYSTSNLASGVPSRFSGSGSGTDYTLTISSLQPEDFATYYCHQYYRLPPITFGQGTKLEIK
Units Of Measure: M⁻¹ s⁻¹
kon: 941000

Identify the reported kon for the following entry. VH3/Vk3 (antibody, V domains shown, member of group m7; also called VH3/Vκ3; VH variant 3 + Vk variant 3) VH: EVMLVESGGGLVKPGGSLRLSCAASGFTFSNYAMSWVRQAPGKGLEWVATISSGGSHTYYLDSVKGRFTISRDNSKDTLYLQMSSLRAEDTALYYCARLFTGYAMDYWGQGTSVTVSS VL: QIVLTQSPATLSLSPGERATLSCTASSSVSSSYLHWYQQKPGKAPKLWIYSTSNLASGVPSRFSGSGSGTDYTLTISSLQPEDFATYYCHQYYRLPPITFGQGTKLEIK
1.06e+06
